# Assay overview: Affinity constant log K1 value for Fe(III) complex
# Type: ADME
Readout type: Log K1

CCc1c(O)c(=O)ccn1CC    15.2
CCC(O)c1c(O)c(=O)cc(C)n1C (stereo unspecified)    14.5
O=c1ccn(CCCO)c(CO)c1O    15.67
Cc1cc(=O)c(O)c(C(C)O)n1C (stereo unspecified)    15.38
Cc1cc(=O)c(O)c(CO)n1C    14.39
CCn1ccc(=O)c(O)c1C(C)O (stereo unspecified)    15.21
Cn1ccc(=O)c(O)c1CO    14.47
CCn1ccc(=O)c(O)c1CO    14.66
Cc1c(O)c(=O)ccn1C    14.56
CCn1c(C)cc(=O)c(O)c1CO    14.37
CC(O)c1c(O)c(=O)ccn1CCCO (stereo unspecified)    14.93
